- tested-on: c-kit (Homo sapiens, UniProt P10721)
- Construct: MO7e (human megakaryocytic leukemia cell line) which had been arrested for 20 hr; endogenous in cells; host or cells: MO7e human megakaryocytic leukemia cell line
- Sequence (P10721 26-976): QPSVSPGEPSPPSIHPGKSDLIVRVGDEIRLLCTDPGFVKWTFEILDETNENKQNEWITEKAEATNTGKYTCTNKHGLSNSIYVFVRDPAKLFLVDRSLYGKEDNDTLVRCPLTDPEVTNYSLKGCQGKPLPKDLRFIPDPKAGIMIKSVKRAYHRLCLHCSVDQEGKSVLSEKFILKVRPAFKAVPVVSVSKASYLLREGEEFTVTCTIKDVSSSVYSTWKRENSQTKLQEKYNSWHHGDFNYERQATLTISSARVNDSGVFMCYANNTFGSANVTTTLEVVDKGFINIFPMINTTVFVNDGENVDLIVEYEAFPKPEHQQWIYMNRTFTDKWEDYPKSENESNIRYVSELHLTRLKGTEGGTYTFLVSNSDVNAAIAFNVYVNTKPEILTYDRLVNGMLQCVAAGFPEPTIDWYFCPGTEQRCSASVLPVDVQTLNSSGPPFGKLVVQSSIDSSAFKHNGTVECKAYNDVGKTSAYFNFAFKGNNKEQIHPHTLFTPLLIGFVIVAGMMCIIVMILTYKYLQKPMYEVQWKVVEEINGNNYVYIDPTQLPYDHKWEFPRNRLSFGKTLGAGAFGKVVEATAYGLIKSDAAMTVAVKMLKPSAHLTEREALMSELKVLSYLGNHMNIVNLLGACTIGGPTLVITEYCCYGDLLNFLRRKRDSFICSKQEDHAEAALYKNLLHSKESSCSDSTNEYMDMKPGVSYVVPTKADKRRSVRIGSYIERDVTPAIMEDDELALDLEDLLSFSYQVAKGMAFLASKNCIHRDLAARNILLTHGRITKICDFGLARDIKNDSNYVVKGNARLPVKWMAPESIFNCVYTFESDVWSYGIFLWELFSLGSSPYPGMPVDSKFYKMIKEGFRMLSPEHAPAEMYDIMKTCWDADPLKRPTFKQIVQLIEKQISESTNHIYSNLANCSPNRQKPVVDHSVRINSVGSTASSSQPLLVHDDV
- assay-procedure: Inhibitory activity against c-kit autophosphorylation (MO7e cells, h-SCF)
- Assay type: cell-based
- measurement-context: MO7e cells, h-SCF stimulation; read-out: c-kit IC50
Label key: Condition met means IC50 under 0.4 µM; Condition not met means IC50 of 0.4 µM or more.

The examples below pair each entry with its known result.
[
  {
    "compound": "COc1cc2ncnc(Oc3ccc(NC(=S)NC(=O)C4CC4C)cc3)c2cc1OC (stereo not shown)",
    "qualitative-label": "Condition met"
  },
  {
    "compound": "COc1cc2nccc(Oc3ccc(NC(=S)NC(=O)c4ccc5c(c4)OCO5)cc3F)c2cc1OC",
    "qualitative-label": "Condition not met"
  },
  {
    "compound": "COc1cc2nccc(Oc3ccc(NC(=S)NC(=O)c4cc(C)oc4C)cc3F)c2cc1OC",
    "qualitative-label": "Condition not met"
  }
]

Input line: Does this compound meet the criterion IC50 < 0.4 µM? `COc1cc2nccc(Oc3ccc(NCCOc4ccc(Cl)cc4Cl)cc3)c2cc1OC`
Output line: Condition met

###

- tested-on: c-kit (Homo sapiens, UniProt P10721)
- Construct: MO7e (human megakaryocytic leukemia cell line) which had been arrested for 20 hr; endogenous in cells; host or cells: MO7e human megakaryocytic leukemia cell line
- assay-procedure: Inhibitory activity against c-kit autophosphorylation (MO7e cells, h-SCF)
- Format: cell-based
- measurement-context: MO7e cells, h-SCF 50 ng/ml; read-out: c-kit IC50
For each record, write down the corresponding pIC50.
Numbers only, as −log10 of the molar value.

[
  {
    "compound": "COc1cc2ncnc(Oc3ccc(NC(=O)OCCc4cccc(C(F)(F)F)c4)c(Cl)c3)c2cc1OC",
    "pIC50": 6.07
  }
]

Working through the 3 compounds below one at a time, give pIC50 for each.
1. COc1cc2nccc(Oc3cc(C)c(NC(=O)SCc4ccc(C)cc4)cc3C)c2cc1OC
2. COc1cc2nccc(Oc3cc(C)c(NC(=O)OCc4ccc(C(F)(F)F)cc4)cc3C)c2cc1OC
3. COc1cc2nccc(Oc3ccc(NC(=O)OCCc4ccccc4)cc3)c2cc1OC

Output line:
1: 6.39; 2: 6.32; 3: 7.39

Input line: Reported pIC50, compound COc1cc2nccc(Oc3cc(C)c(NC(=O)OC(C)c4cccc(Cl)c4)cc3C)c2cc1OC (centres unmarked) : ____
Output line: 6.47

###

- tested-on: c-kit (Homo sapiens, UniProt P10721)
- Construct: MO7e (human megakaryocytic leukemia cell line) which had been arrested for 20 hr; endogenous in cells; host or cells: MO7e human megakaryocytic leukemia cell line
- assay-procedure: Inhibitory activity against c-kit autophosphorylation (MO7e cells, h-SCF)
- Type: cell-based
- measurement-context: MO7e cells, 50 ng/ml h-SCF; read-out: c-kit IC50
- Procedure: Inhibitory Activity Against c-kit Autophosphorylation MO7e (human megakaryocytic leukemia cell line) which had been arrested for 20 hr was seeded into 96 well plates at an amount of 2×10^5 per well. A solution of a test compound in DMSO was added, and a reaction was then allowed to proceed for one hr. Thereafter, the cells were stimulated by 50 ng/ml of h-SCF for 5 min, followed by replacement with lysate buffer to solubilize the cells. […]
For each record, write down the corresponding pIC50.
Numbers only, as −log10 of the molar value.

// worked examples, pIC50 included
[
  {
    "molecule": "CCCCCC(C)OC(=O)Nc1ccc(Oc2ccnc3cc(OC)c(OC)cc23)cc1 (stereo not shown)",
    "tested-on": "c-kit (Homo sapiens, UniProt P10721)",
    "pIC50": 7.37
  },
  {
    "molecule": "CCC(C(=O)NC(=S)Nc1ccc(Oc2ccnc3cc(OC)c(OC)cc23)cc1)c1ccccc1 (stereo not shown)",
    "tested-on": "c-kit (Homo sapiens, UniProt P10721)",
    "pIC50": 6.12
  },
  {
    "molecule": "COc1cc2ncnc(Oc3ccc(OC(=O)c4ccccc4)cc3)c2cc1OC",
    "tested-on": "c-kit (Homo sapiens, UniProt P10721)",
    "pIC50": 6.26
  },
  {
    "molecule": "COc1cc2ncnc(Oc3ccc(N(C)C(=O)OC4CCCCC4)cc3)c2cc1OC",
    "tested-on": "c-kit (Homo sapiens, UniProt P10721)",
    "pIC50": 6.76
  },
  {
    "molecule": "CCN(CC)CCNC(=O)Nc1ccc(Oc2ccnc3cc(OC)c(OC)cc23)c(C)c1",
    "tested-on": "c-kit (Homo sapiens, UniProt P10721)",
    "pIC50": 6.03
  }
]

Input line: Reported pIC50, molecule `COc1cc2nccc(Oc3ccc(NC(=S)NC(=O)CCSC)cc3Cl)c2cc1OC` : ____
Output line: 6.68

###

- tested-on: c-kit (Homo sapiens, UniProt P10721)
- Construct: MO7e (human megakaryocytic leukemia cell line) which had been arrested for 20 hr; endogenous in cells; host or cells: MO7e human megakaryocytic leukemia cell line
- assay-procedure: Inhibitory activity against c-kit autophosphorylation (MO7e cells, h-SCF)
- Assay type: cell-based
- measurement-context: MO7e cells, h-SCF 50 ng/ml; read-out: c-kit IC50
For each record, write down the corresponding IC50.
Give bare numbers, in nM.

// worked examples, IC50 included
[
  {
    "compound": "COc1cc2nccc(Oc3cc(C)c(NC(=O)OCC4CCCCCC4)cc3C)c2cc1OC",
    "tested-on": "c-kit (Homo sapiens, UniProt P10721)",
    "quantitative-readout": 309
  },
  {
    "compound": "COc1cc2nccc(Oc3ccc(NC(=O)OCCc4cccc(C(F)(F)F)c4)c(C)c3C)c2cc1OC",
    "tested-on": "c-kit (Homo sapiens, UniProt P10721)",
    "quantitative-readout": 253
  },
  {
    "compound": "COc1cc2nccc(Oc3cc(C)c(NC(=O)OCc4ccccc4Cl)cc3C)c2cc1OC",
    "tested-on": "c-kit (Homo sapiens, UniProt P10721)",
    "quantitative-readout": 232
  },
  {
    "compound": "COc1ccc(COC(=O)Nc2ccc(Oc3ccnc4cc(OC)c(OC)cc34)cc2)cc1",
    "tested-on": "c-kit (Homo sapiens, UniProt P10721)",
    "quantitative-readout": 57
  },
  {
    "compound": "COc1cc2ncnc(Oc3ccc(NC(=O)OCCCOc4ccccc4OC)cc3)c2cc1OC",
    "tested-on": "c-kit (Homo sapiens, UniProt P10721)",
    "quantitative-readout": 52
  },
  {
    "compound": "COc1cc2nccc(Oc3ccc(NC(=O)OC(C)c4ccccc4Br)c(C)c3C)c2cc1OC (stereo not shown)",
    "tested-on": "c-kit (Homo sapiens, UniProt P10721)",
    "quantitative-readout": 402
  },
  {
    "compound": "CCCC(CC)OC(=O)Nc1ccc(Oc2ncnc3cc(OC)c(OC)cc23)cc1Cl (stereo not shown)",
    "tested-on": "c-kit (Homo sapiens, UniProt P10721)",
    "quantitative-readout": 956
  },
  {
    "compound": "COc1cc2nccc(Oc3ccc(NC(=O)OCCCSc4cc(C)ccc4C)cc3)c2cc1OC",
    "tested-on": "c-kit (Homo sapiens, UniProt P10721)",
    "quantitative-readout": 31
  }
]

Working through the 2 compounds below one at a time, give IC50 for each.
1. COc1ccc(COC(=O)Nc2ccc(Oc3ncnc4cc(OC)c(OC)cc34)cc2)cc1OC
2. COc1cc2ncnc(Oc3ccc(NC(=O)OC(C)c4cccc(N(C)C)c4)cc3)c2cc1OC (stereo not shown)

Output line:
103
610

Working through the 6 compounds below one at a time, give IC50 for each.
1. COc1cc2ncnc(Oc3ccc(NC(=O)OCc4ccccc4Cl)c(Cl)c3)c2cc1OC
2. COc1cc2nccc(Oc3ccc(NC(=O)SCc4ccc(C)cc4)c(C)c3C)c2cc1OC
3. COc1cc2nccc(Oc3ccc(NC(=O)OCCCOc4ccc(Cl)cc4)c(C)c3C)c2cc1OC
4. COc1cc2nccc(Oc3ccc(NC(=O)OCCCSc4ccc(Cl)cc4C)cc3)c2cc1OC
5. CCOc1ccccc1C(C)OC(=O)Nc1ccc(Oc2ncnc3cc(OC)c(OC)cc23)cc1 (stereo not shown)
6. CCC(CC)OC(=O)Nc1cc(C)c(Oc2ccnc3cc(OC)c(OC)cc23)cc1C

Output line:
1: 418; 2: 180; 3: 118; 4: 99; 5: 714; 6: 274

Working through the 6 compounds below one at a time, give IC50 for each.
1. COc1cc2nccc(Oc3cc(C)c(NC(=O)OCCc4ccccc4)cc3C)c2cc1OC
2. CCCCOC(=O)Nc1ccc(Oc2ccnc3cc(OC)c(OC)cc23)cc1
3. COc1cc2nccc(Oc3ccc(NC(=O)OCc4ccccc4Cl)cc3)c2cc1OC
4. COc1cc2nccc(Oc3cc(C)c(NC(=O)OCc4ccccc4)cc3C)c2cc1OC
5. COc1cc2ncnc(Oc3ccc(NC(=O)OCc4ccccc4)c(Cl)c3)c2cc1OC
6. COc1cc2nccc(Oc3ccc(NC(=O)OC4CCCCC4)cc3)c2cc1OC

Output line:
1: 119; 2: 37; 3: 194; 4: 123; 5: 453; 6: 111

Working through the 2 compounds below one at a time, give IC50 for each.
1. COc1cc2nccc(Oc3ccc(NC(=O)OCCCOc4ccccc4Cl)cc3)c2cc1OC
2. COc1cc2ncnc(Oc3ccc(NC(=O)OCC4CCCCC4)c(Cl)c3)c2cc1OC

Output line:
[44, 519]
